These measurements were taken from PubChem BioAssay (NCI).

test system: SW-620 colon; test: NCI-60 one-dose screen, 48 h (100 = growth as untreated, 0 = no growth, -100 = all killed); conditions: 10 µM unless noted
About 83,000 compounds went through this panel and 20% of them were active in at least one assay; those are over-represented in the sample as a whole.
RECORDED_ENDPOINT: growth (%)
Numbers only, in %.

Worked cases, growth given:
> print(dat)
                                   molecule  result.units  readout.value
1  COc1cc(C(=O)/C=C/c2c(C(F)(F)F)nc3ccccn23)cc(OC)c1OC             %          -29.6
2   Cc1cc(=O)c2cc3nc(-c4cccnc4)oc3c(Br)c2o1             %           99.5
3                        NC(=S)N/N=C/C(=O)O             %           65.7
4  O=S(=O)(NCCNc1cc(-c2c(-c3cccc(O)c3)nc3sccn23)ccn1)c1ccc(Cl)cc1             %           89.2

Give one value of growth per listed molecule.
1. Cc1nc(Nc2cccc(NC(=O)Nc3ccc(Cl)cc3)c2)c2ccccc2n1
2. O=C(c1ccccc1)c1ccc(Cl)c([N+](=O)[O-])c1
3. COc1ccc(-c2cc(-c3cc(OC)ccc3OC)[nH]c(=O)c2C#N)cc1

Result:
46.7
16.8
26.7

Report growth for every entry below.
1. Nc1nc(Nc2ccc(Cl)cc2)nn1S(=O)(=O)c1ccc(-c2ccc(F)cc2)cc1
2. N=c1ccn2c(n1)OC1C(O)C(CO)OC12 (configuration not stated)
3. N#Cc1c(Oc2ccc([N+](=O)[O-])cc2)nc2sc3cc(Cl)ccc3n2c1=N
4. CCN(CC)CC(=O)Nc1cccc(C(=O)OC(C)C)c1
5. NS(=O)(=O)Oc1ccc(NC(=O)C23CC4CC(CC(C4)C2)C3)cc1Cl

Result:
[95.5, 41.5, 93.1, 115, 106]

###

tested on: NCI/ADR-RES ovarian; assay: NCI-60 one-dose screen, 48 h; conditions: 10 µM unless noted
About 83,000 compounds went through this panel and 20% of them were active in at least one assay; those are over-represented in the sample as a whole. Active and inactive are the calls of the source. How the source made its calls: active means growth percent below 10; inactive means the rest.
Reply using exactly one outcome from Yes (active), No (inactive)

Known results for compounds:
> print(dat)
                                   compound  classification
1  COc1ccc(-n2ncn(CCCCCCn3cnn(-c4ccc(OC)cc4)c3=O)c2=O)cc1              No
2  O=S(=O)(NCCNc1cc(-c2c(-c3cccc(O)c3)nc3sccn23)ccn1)c1ccc(Br)cc1              No
3  COc1ccc(C(=O)/C=C/C23c4ccccc4C(c4ccccc42)C2C(=O)NC(=O)C23)cc1 (stereo not drawn)              No

Problem: Please let me know the test result on file for CCCCC1COc2cccc3c(SCC(=O)N(C)c4cccc(Cl)c4)cc[n+]1c23 (stereo not drawn) .
Result: No

Problem: Lab log entry: Cc1nc(Nc2cccc(NC(=O)Nc3ccc(Cl)cc3)c2)c2ccccc2n1 — outcome as called in the assay?
Result: No

Problem: # fetch the recorded call for COc1ccc(-c2cc(-c3ccc(Nc4nc(Nc5ccccc5)nc(Nc5ccc(Cl)cc5)n4)cc3)nc(N)c2C#N)cc1 here
Result: Yes

Problem: Answer briefly: the call reported for C=CCOc1cccc(/C=C2\SC(=Nc3ccc(O)cc3)NC2=O)c1 in this assay.
Result: Yes

Problem: Called result for CCOc1ccc(S(=O)(=O)c2ccc(C)cc2)c2c1no[n+]2[O-]
Result: No

###

Test system: HCC-2998 colon
Experiment: NCI-60 one-dose screen, 48 h
Conditions: 10 µM unless noted
Experimental: Growth inhibition of the HCC-2998 human tumor cell line is measured as a screen for anti-cancer activity. Cells are grown in 96 well plates and exposed to the test compound for 48 hours. Compounds are tested at a single concentration, which is 10^-5 M for most compounds. The reported endpoint is percent growth (GI% or GIPRCNT), where numbers from 0 - 100% represent growth inhibition, and numbers from -100% - 0 represent cell death. For example, a value of 40 represents 60% growth inhibition. […]
Compounds without any hit were thinned out: in the full panel of roughly 83,000, 20% have a hit. Activity calls are given as the source filed them. Rule for the calls: active = growth percent below 10; inactive = the rest.
In this exercise, the only acceptable responses are active, inactive

> print(dat)
                           smiles.structure  classification
1  COc1cc2c(cc1OC)-c1ccc3cc4c(cc3c1N(CCN1CCCC1)C2)OCO4        inactive
2  O=S(=O)(NCCNc1cc(-c2c(-c3cccc(O)c3)nc3sccn23)ccn1)c1ccc(Cl)cc1        inactive
3  CC(C)c1ccc(C(=O)OC(=O)c2ccc(C(C)C)cc2)cc1        inactive
4  O=S(=O)(Nc1ccsc1-c1nc(-c2ccccc2)no1)c1cc(Cl)cc(Cl)c1        inactive
5            O=C1Nc2ccccc2/C1=N/N=C/c1ccsc1        inactive
6                            NC(N)=N/N=C/CO        inactive
7  COc1ccc(-n2nnc(C(=O)NCCc3c[nH]c4ccc(F)cc34)c2C)cc1        inactive
8  CCCN1CCN(c2ccc3nc(-c4ccc5nc(-c6cc(OC)c(OC)c(OC)c6)[nH]c5c4)[nH]c3c2)CC1        inactive

Please examine the following record next.
Problem: How did this test come out for CN(C)CCn1cc(-c2ccc3c(Nc4ccc(CC(=O)Nc5cccc(F)c5)cc4)ncnc3c2)cn1 ?
Result: active

###

Test system: SN12C renal
Assay: NCI-60 one-dose screen, 48 h (100 = growth as untreated, 0 = no growth, -100 = all killed)
Conditions: 10 µM unless noted
Protocol: Growth inhibition of the SN12C human tumor cell line is measured as a screen for anti-cancer activity. Cells are grown in 96 well plates and exposed to the test compound for 48 hours. Compounds are tested at a single concentration, which is 10^-5 M for most compounds. The reported endpoint is percent growth (GI% or GIPRCNT), where numbers from 0 - 100% represent growth inhibition, and numbers from -100% - 0 represent cell death. For example, a value of 40 represents 60% growth inhibition. […]
About 83,000 compounds went through this panel and 20% of them were active in at least one assay; those are over-represented in the sample as a whole.
RECORDED_ENDPOINT: growth (%)
Numbers only, in %.

> print(dat)
                                   molecule  tested.system  recorded.endpoint  readout.value
1  O=C1NC(=S)S/C1=C\N1N=C(c2ccc(Cl)cc2)CC1c1ccc(F)cc1 (stereo not drawn)    SN12C renal             growth           96.5

Give growth for all molecules that follow.
1. COc1ccc(-c2nnc(-c3ccc4c(c3)nc(-c3ccccc3)n4C3CCCCC3)o2)cc1
2. Nc1c(-c2nc3ccc(Br)cc3c(=O)[nH]2)nnn1-c1ccccc1

Result:
1: 65.4; 2: 95.5

###

system: DU-145 prostate; experiment: NCI-60 one-dose screen, 48 h (100 = growth as untreated, 0 = no growth, -100 = all killed); settings: 10 µM unless noted
This is part of a sample that, as a whole, favours compounds with a hit. Of some 83,000 tested, about 20% had one in any assay. Calls of active or inactive are those of the source. Rule for the calls: active = growth percent below 10; inactive = the rest.
Please respond with reported growth for every item in the list.

Examples with answers:
COMPOUND	growth
CCCCN(Cc1ccc(C(=O)NO)cc1)C(=O)Nc1ccc(OCCCCCCCCCn2cc(CCCCC(=O)N[C@H](C(=O)N3C[C@H](O)C[C@H]3C(=O)NCc3ccc(-c4scnc4C)cc3)C(C)(C)C)nn2)cc1	50.8% (inactive)
Clc1ccc2[nH]c3c(NCCCN4CCOCC4)ncnc3c2c1	87.3% (inactive)
CNC(=O)c1cc(Oc2ccc3nc(Nc4cc(Cl)cc(Cl)c4)ccc3c2)ccn1	78% (inactive)
O=C(/C=C/C12c3ccccc3C(c3ccccc31)C1C(=O)NC(=O)C12)c1ccc(Cl)cc1 (stereo not given)	8.95% (active)

Now consider a different compound.
Problem: Quick one: growth of Cc1nc(Nc2ccc(S(=O)(=O)Nc3cc(C)on3)cc2)c2ccccc2n1 ?
Result: 112% (inactive)

###

tested on: EKVX NSCLC; assay: NCI-60 one-dose screen, 48 h; settings: 10 µM unless noted
This is part of a sample that, as a whole, favours compounds with a hit. Of some 83,000 tested, about 20% had one in any assay. The source made the active and inactive calls. The calls were made as follows: active = growth percent below 10; inactive = the rest.
I would appreciate it if you answered using one of these outcomes: active, inactive

> print(dat)
                              compound  classification
1  C/C(=N\NC(N)=S)c1nc2ccc(Cl)cc2[nH]1        inactive
2           CN(C)CCOC(=O)Nc1ccc(Cl)cc1        inactive

Problem: State the result this test recorded for O=C(NCOC(O)C(Cl)(Cl)Cl)NCOC(O)C(Cl)(Cl)Cl (centres undefined) .
Result: inactive

Problem: In this assay, the call recorded for N[C@@H]1CCC[C@H]1NCCCCN1C(=O)c2cccc3cccc(c23)C1=O was what?
Result: inactive

Problem: Could you please tell me the result logged for CCN(CC)CCOC(=O)N1c2ccccc2Sc2ccccc21 in this assay?
Result: inactive

Problem: Outcome logged for Clc1cnc(Nc2ccc(OCCN3CCCC3)cc2)nc1NCc1ccco1 in this assay:
Result: inactive

Problem: // outcome(item) with item = CCOC(=O)C1=C(C)NC(SCc2nnc(-c3ccc(Cl)cc3)o2)=NC1c1ccc(Cl)cc1Cl (centres undefined)
Result: inactive
